Biological target: mTOR (Homo sapiens)
Construct: FLAG; made in house
Sequence (P42345 1362-2549): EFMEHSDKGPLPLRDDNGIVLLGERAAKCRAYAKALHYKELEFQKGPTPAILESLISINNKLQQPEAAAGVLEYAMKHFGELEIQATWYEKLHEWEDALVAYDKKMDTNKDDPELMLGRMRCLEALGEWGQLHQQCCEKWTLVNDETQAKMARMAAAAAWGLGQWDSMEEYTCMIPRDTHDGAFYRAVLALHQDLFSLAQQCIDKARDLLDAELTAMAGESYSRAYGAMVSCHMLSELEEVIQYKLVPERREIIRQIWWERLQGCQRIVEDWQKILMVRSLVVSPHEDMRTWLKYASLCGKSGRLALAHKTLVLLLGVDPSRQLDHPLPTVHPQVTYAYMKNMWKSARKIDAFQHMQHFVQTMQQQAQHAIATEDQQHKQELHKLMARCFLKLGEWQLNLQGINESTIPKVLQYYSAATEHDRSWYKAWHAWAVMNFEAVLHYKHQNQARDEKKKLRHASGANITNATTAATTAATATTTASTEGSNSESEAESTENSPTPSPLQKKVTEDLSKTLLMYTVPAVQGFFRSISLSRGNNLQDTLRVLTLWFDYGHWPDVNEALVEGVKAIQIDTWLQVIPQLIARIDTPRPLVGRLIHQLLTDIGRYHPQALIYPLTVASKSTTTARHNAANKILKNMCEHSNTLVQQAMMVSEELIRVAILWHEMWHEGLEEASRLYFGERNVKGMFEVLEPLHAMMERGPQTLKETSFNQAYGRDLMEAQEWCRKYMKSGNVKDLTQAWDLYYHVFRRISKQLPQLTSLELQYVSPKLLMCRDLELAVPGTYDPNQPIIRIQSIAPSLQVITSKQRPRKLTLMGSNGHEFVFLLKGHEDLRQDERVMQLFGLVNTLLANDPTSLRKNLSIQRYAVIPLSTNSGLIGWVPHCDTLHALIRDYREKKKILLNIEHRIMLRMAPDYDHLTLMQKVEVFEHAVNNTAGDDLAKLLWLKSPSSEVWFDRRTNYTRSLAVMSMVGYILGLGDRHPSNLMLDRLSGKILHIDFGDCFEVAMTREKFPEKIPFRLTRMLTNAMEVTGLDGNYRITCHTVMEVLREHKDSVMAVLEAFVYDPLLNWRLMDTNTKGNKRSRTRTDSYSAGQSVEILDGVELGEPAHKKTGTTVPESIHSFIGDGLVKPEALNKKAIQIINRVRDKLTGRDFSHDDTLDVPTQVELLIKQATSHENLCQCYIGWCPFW
Test: In Vitro mTOR Kinase Assay (Echo), Test (a)(ii)
Type: biochemical
Settings: table of enzyme assay Test (a)(ii); read-out: Test (a)(ii) IC50
pIC50: −log10 of the molar value.
observation-type: pIC50

Use the examples below as a reference point.
>>> print(df.to_string())
                                   compound  readout_value
0  C[C@H]1COCCN1c1cc(C2(S(=O)(=O)c3ccccc3)CC2)nc(-c2ccc(NC(=O)NCC(F)(F)F)cc2)n1 [Example 36ea]           8.05
1  C[C@H]1COCCN1c1cc(C2(S(=O)(=O)c3ccccn3)CCCC2)nc(-c2ccc(NC(=O)NCCC#N)cc2)n1 [Example 36ad]           7.49

[A] CNC(=O)Nc1ccc(-c2nc(N3CCOC[C@@H]3C)cc(C3(S(=O)(=O)c4sc(C)nc4C)CC3)n2)cc1 [Example 78a]
[B] CN(C)C(=O)C1(c2cc(N3CCOCC3)nc(-c3ccc(NC(=O)NCCO)cc3)n2)CC1 [Example 34]
## Task Which record shows the lower pIC50: the first, A , or the second, B ? Refer to your chosen entry by its label in the reply.
## Result A
(A: 7.82, B: 8.39)

[1] C[C@H]1COCCN1c1cc(C2(S(=O)(=O)c3ccc(Cl)cc3)CC2)nc(-c2ccc(NC(=O)NCCO)cc2)n1 [Example 27h]
[2] C[C@H]1COCCN1c1cc(C2(S(=O)(=O)c3ccccc3)CC2)nc(-c2ccc(NC(=O)NCC(O)C(F)(F)F)cc2)n1 (stereo partly drawn) [Example 36be]
[3] C[C@H]1COCCN1c1cc(C2(S(=O)(=O)c3nccs3)CCC2)nc(-c2ccc(NC(=O)NCc3ncc[nH]3)cc2)n1 [Example 98i]
## Task Reorder: pIC50, max to min. Answer format: the labels, in the requested order.
## Result 1, 2, 3
(1: 9.61, 2: 8.42, 3: 7.55)

[1] C[C@H]1COCCN1c1cc(C2(S(=O)(=O)c3ccccc3)CC2)nc(-c2ccc(NC(=O)NC3CC3)cc2)n1 [Example 36bc]
[2] C[C@@H](CO)NC(=O)Nc1ccc(-c2nc(N3CCOC[C@@H]3C)cc(C3(S(=O)(=O)c4ccc(F)cc4)CCC3)n2)cc1 [Example 65d]
## Task Which record shows the lower pIC50: the first, 1 , or the second, 2 ? Refer to your chosen entry by its label in the reply.
## Result 2
(2: 8.35, 1: 8.55)

[I] C[C@H]1COCCN1c1cc(C2(S(=O)(=O)c3ccccc3)CC2)nc(-c2ccc(NC(=O)NC(C)(C)CO)cc2)n1 [Example 36bk]
[II] C[C@H]1COCCN1c1cc(C2(S(=O)(=O)c3ccc(F)cc3F)CC2)nc(-c2ccc(NC(=O)NCC3(O)CC3)cc2)n1 [Example 57g]
[III] C[C@H]1COCCN1c1cc(C2(S(=O)(=O)c3ccc(C#N)cc3)CC2)nc(-c2ccc(NC(=O)NC3CC3)cc2)n1 [Example 77]
## Task Put these in order: smallest pIC50 first, largest last. Answer format: the labels, in the requested order.
## Result II, III, I

[P] C[C@H]1COCCN1c1cc(C2(S(C)(=O)=O)CCNCC2)nc(-c2ccc(NC(=O)NCCO)cc2)n1 [Example 20c]
[Q] Cc1cnc(NC(=O)Nc2ccc(-c3nc(N4CCOC[C@@H]4C)cc(C4(S(C)(=O)=O)CC4)n3)cc2)cn1 [Example 36az]
## Task Which record shows the lower pIC50: the first, P , or the second, Q ? Refer to your chosen entry by its label in the reply.
## Result P

[1] CCCNC(=O)Nc1ccc(-c2nc(N3CCOC[C@@H]3C)cc(C3(S(=O)(=O)c4ccc(Cl)cc4)CC3)n2)cc1 [Example 27i]
[2] C[C@H]1COCCN1c1cc(C2(S(=O)(=O)CCCO)CC2)nc(-c2ccc(NC(=O)NCCN(C)C)cc2)n1 [Example 31l]
## Task So which one has the bigger pIC50 here, 1 or 2 ? Refer to your chosen entry by its label in the reply.
## Result 1
(1: 8.52, 2: 6.67)

[a] CN(C(=O)C1(c2cc(N3CCOCC3)nc(-c3ccc(NC(=O)NC4CC4)cc3)n2)CC1)C1CC1 [Example 33c]
[b] C[C@H]1COCCN1c1cc(C2(S(=O)(=O)c3ccccc3)CC2)nc(-c2ccc(NC(=O)NCc3ncc[nH]3)cc2)n1 [Example 36bn]
[c] C[C@H]1COCCN1c1cc(C2(S(C)(=O)=O)CC2)nc(-c2ccc(NC(=S)NCCN(C)C)cc2)n1 [Example 35c]
[d] CCS(=O)(=O)C1(c2cc(N3CCOC[C@@H]3C)nc(-c3ccc(NC(=O)NC4(CO)CC4)cc3)n2)CC1 [Example 36v]
## Task Put these in order: smallest pIC50 first, largest last. Answer format: the labels, in the requested order.
## Result d, c, b, a

[I] Cc1cc(NC(=O)Nc2ccc(-c3nc(N4CCOC[C@@H]4C)cc(C4(S(=O)(=O)c5ccccc5)CC4)n3)cc2)no1 [Example 36dw]
[II] CNC(=O)Nc1ccc(-c2nc(N3CCOC[C@@H]3C)cc(C3(S(=O)(=O)CCCO)CC3)n2)cc1 [Example 31g]
[III] CCNC(=S)Nc1ccc(-c2nc(N3CCOC[C@@H]3C)cc(C3(S(=O)(=O)CCCO)CC3)n2)cc1 [Example 37k]
[IV] C[C@H]1COCCN1c1cc(C2(S(=O)(=O)C3CC3)CC2)nc(-c2cnc(NC(=O)Nc3cnn(C)c3)nc2)n1 [Example 14z]
## Task Reorder: pIC50, max to min. Answer format: the labels, in the requested order.
## Result II, I, III, IV
